# credit: PubChem BioAssay (EPA / NIEHS)

Assay procedure: TOX21_p53_BLA_p5_viability: Viability Assessment in the Tox21 HCT-116 p53 Agonism Beta-lactamase Assay, Phase 5 (AID 2283600)
Results filed as inconclusive are left out. Activity calls are given as the source filed them. Rule for the calls: active = hit-call score of the fitted dose curve at least 0.9, where 1 is the maximum; inconclusive = response in the unintended direction; inactive = score below 0.9. Where a SMILES comes first, the peptide text is derived from it. Bridges are numbered along the chain shown (N, C = ends). [ ]: non-standard residue; d: D form. The star is where a group is joined. Ileψ(thiazoline)Cys = CC[C@H](C)[C@H](N)C1=N[C@H](C(=O)*)CS1; dOrn = NCCC[C@@H](N)C(=O)O
Observable: outcome

Check out these entries, answers already filled in.
{"columns": ["Molecule", "Experimental result"],
 "data": [
  ["CC(C)(C)CC(C)(C)c1cc(Cc2cc(C(C)(C)CC(C)(C)C)cc(-n3nc4ccccc4n3)c2O)c(O)c(-n2nc3ccccc3n2)c1", "inactive"],
  ["CC[C@@H](CO)NCCN[C@@H](CC)CO", "inactive"],
  ["CC[C@H](C)[C@H](N)C1=N[C@H](C(=O)N[C@@H](CC(C)C)C(=O)N[C@H](CCC(=O)O)C(=O)N[C@H](C(=O)N[C@H]2CCCCNC(=O)[C@H](CC(N)=O)NC(=O)[C@@H](CC(=O)O)NC(=O)[C@H](Cc3cnc[nH]3)NC(=O)[C@@H](Cc3ccccc3)NC(=O)[C@H]([C@@H](C)CC)NC(=O)[C@@H](CCCN)NC2=O)[C@@H](C)CC)CS1 ({Ileψ(thiazoline)Cys}-L[dE]IK[dOrn]I[dF]H[dD]N; lactam 4-C)", "inactive"],
  ["CC1(C)S[C@@H]2[C@H](NC(=O)[C@H](N)c3ccccc3)C(=O)N2[C@H]1C(=O)OCOC(=O)[C@@H]1N2C(=O)C[C@H]2S(=O)(=O)C1(C)C", "inactive"],
  ["CC(C)(O)CCCC1=CCC(C=O)CC1 (stereo unspecified)", "inactive"]
]}

Annotate the molecule C=C[C@]1(C)C[C@@H](OC(=O)CO)[C@]2(C)[C@H](C)CC[C@]3(CCC(=O)[C@H]32)[C@@H](C)[C@@H]1O with its measured outcome.
inactive
